- ASSAY_TARGET: CK1α (Homo sapiens)
- Construct: HEK293 clonal lines with CRISPR KI HiBiT tag on CSNK1A1
- Sequence (P48729 whole entry): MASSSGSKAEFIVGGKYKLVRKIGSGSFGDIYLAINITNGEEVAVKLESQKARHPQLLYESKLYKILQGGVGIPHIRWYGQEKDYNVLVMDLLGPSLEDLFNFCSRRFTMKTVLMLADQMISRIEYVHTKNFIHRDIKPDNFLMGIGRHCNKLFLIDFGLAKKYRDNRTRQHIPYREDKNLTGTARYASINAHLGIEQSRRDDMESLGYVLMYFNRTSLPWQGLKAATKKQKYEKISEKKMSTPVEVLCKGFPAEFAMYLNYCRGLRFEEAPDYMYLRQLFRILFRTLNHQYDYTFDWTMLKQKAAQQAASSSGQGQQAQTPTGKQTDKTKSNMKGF
- Sequence (Q96SW2 whole entry, further chain): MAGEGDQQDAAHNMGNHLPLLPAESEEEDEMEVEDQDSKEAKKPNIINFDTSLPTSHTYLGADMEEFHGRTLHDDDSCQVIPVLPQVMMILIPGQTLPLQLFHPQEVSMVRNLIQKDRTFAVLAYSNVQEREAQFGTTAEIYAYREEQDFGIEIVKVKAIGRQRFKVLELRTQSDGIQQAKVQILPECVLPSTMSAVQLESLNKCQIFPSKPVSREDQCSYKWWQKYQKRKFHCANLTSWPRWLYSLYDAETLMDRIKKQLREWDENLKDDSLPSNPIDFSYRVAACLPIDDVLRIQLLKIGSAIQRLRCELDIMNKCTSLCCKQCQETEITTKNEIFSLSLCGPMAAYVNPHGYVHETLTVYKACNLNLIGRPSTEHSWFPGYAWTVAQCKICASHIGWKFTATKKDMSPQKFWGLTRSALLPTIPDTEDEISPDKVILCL
- Sequence (Q16531 2-1140 partner limits assumed): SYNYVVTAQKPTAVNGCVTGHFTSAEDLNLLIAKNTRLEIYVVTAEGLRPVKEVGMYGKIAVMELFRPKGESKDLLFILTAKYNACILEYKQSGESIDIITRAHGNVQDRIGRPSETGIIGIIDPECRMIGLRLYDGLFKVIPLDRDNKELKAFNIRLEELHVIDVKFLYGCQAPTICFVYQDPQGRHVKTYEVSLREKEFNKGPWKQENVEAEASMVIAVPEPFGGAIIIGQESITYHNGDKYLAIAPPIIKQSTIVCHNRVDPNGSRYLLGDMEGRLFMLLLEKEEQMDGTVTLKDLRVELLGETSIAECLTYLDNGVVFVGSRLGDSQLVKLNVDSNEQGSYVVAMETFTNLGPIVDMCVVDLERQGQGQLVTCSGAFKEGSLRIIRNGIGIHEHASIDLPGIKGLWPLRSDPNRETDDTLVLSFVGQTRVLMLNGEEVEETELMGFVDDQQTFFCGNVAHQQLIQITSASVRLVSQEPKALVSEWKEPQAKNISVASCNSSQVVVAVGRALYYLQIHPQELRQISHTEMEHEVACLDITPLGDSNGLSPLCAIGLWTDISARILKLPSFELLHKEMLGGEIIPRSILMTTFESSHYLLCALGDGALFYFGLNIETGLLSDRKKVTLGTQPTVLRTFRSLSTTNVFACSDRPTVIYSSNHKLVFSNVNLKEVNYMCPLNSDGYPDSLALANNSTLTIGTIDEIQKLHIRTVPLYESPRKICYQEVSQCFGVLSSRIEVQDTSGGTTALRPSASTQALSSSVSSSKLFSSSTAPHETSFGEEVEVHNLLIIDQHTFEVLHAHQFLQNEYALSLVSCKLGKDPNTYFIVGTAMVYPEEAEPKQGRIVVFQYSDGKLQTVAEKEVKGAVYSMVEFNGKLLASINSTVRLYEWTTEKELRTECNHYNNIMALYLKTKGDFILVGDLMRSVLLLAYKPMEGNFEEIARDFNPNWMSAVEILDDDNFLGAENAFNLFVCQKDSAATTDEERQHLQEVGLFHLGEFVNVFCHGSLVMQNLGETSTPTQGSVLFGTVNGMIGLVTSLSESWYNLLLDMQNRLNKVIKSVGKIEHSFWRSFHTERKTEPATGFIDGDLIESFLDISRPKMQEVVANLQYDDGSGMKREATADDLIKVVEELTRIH
- ASSAY_REMARKS: CK1α NanoBit Assay (HiBiT-tagged CSNK1A1, HEK293 clonal lines)
- Type: cell-based
- CONDITION_DESCRIPTION: HEK293 HiBiT-CSNK1A1/LgBiT cells, 24 h incubation
The following compounds are listed with their measured DC50 values.

Sample records with DC50:
// query Kindly state the measured DC50 obtained for Cn1cc(C2CCN(C(=O)Nc3ccc4c(c3)CN(C3CCC(=O)NC3=O)C4=O)C2)cn1 (stereo not shown) with CK1α (Homo sapiens).
// result > 1 µM

// query Notebook entry, CK1α (Homo sapiens) assay: DC50 of COc1cccc2c1CN(C(=O)Nc1ccc3c(c1)CN(C1CCC(=O)NC1=O)C3=O)C2 (stereo not shown) = ?
// result < 0.1 µM

// query Quick check: DC50 on CK1α (Homo sapiens), item O=C1CCC(N2Cc3cc(NC(=O)N4CC(CC(F)F)(c5ccccc5)C4)ccc3C2=O)C(=O)N1 (stereo not shown) ?
// result 0.1 to 1 µM

Now let's try a different one.
// query Request: DC50, test system CK1α (Homo sapiens), entry COC[C@@H]1Cc2ccccc2N1C(=O)Nc1ccc2c(c1)CN(C1CCC(=O)NC1=O)C2=O (stereo in doubt) [Compound 337]
// result < 0.1 µM
